Data provenance is patent US11759462B2.

Target or test system: Recombinant human TPH1 (MBP tagged) (Homo sapiens, UniProt P17752)
Construct: cloning full length human TPH1 cDNA in to a bacterial pMAL-c5E expression vector; made in house; host or cells: E. coli BL21 (DE3)
Sequence (P17752 1-444): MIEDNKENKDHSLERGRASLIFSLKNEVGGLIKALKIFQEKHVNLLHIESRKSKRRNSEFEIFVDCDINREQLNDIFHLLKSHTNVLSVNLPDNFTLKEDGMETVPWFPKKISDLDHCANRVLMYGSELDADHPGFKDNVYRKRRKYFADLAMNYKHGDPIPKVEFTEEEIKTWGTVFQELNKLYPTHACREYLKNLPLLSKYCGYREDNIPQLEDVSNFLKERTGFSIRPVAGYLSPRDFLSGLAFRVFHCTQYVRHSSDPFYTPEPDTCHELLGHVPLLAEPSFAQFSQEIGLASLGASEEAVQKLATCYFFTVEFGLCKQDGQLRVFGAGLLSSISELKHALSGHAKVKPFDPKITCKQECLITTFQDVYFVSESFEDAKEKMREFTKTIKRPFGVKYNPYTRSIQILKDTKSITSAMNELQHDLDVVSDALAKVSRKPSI
Assay procedure: TPH1 in vitro inhibition assay (kinetic fluorescence)
Type: biochemical
Setup conditions: read-out: TPH1 Range (TPH1 inhibition IC50)
Measurement label: IC50

[[record]]
compound = "COc1ccc2cc(-c3ccc([C@@H](Oc4cc(N5CCC6(CC5)CN[C@H](C(=O)O)C6)nc(N)n4)C(F)(F)F)cc3)ccc2n1 [Example 55ah]"
reading = "50 to 300 nM"


Prompt: Consider the compound CCOc1ccc(-c2ccc([C@@H](Oc3cc(N4CCC5(CC4)CN[C@H](C(=O)O)C5)nc(C)n3)C(F)(F)F)c(-n3ccc(C)n3)c2)cc1 [Example 29s] . State its measured IC50.
Completion: < 50 nM

Prompt: Consider the compound Cc1ccc(-c2ccc([C@@H](Oc3cc(N4CCC5(CC4)CN[C@H](C(=O)O)C5)nc(N)n3)C(F)(F)F)c(-c3cccc(S(C)(=O)=O)c3)c2)cc1C [Example 52a] . State its measured IC50.
Completion: < 50 nM

Prompt: Consider the compound CCOc1cccc(-c2cc(Cl)ccc2[C@@H](Oc2cc(N3CCC4(CC3)CN[C@H](C(=O)O)C4)nc(N)n2)C(F)(F)F)c1 [Example 34ah] . State its measured IC50.
Completion: < 50 nM

Prompt: Consider the compound `Cc1ccn(-c2cc(-c3ccc(OC(C)C)c(F)c3)ccc2[C@@H](Oc2cc(N3CCC4(CC3)CN[C@H](C(=O)O)C4)nc(N)n2)C(F)(F)F)n1` . State its measured IC50.
Completion: < 50 nM

Prompt: Consider the compound `Cc1ccn(-c2cc(-c3ccc(F)c(Cl)c3)ccc2[C@@H](Oc2cc(N3CCC4(CC3)CN[C@H](C(=O)O)C4)nc(N)n2)C(F)(F)F)n1` . State its measured IC50.
Completion: 50 to 300 nM

* * *

Target or test system: Recombinant human TPH1 (MBP tagged) (Homo sapiens, UniProt P17752)
Construct: cloning full length human TPH1 cDNA in to a bacterial pMAL-c5E expression vector; made in house; host or cells: E. coli BL21 (DE3)
Assay procedure: TPH1 in vitro inhibition assay (kinetic fluorescence)
Format: biochemical
Setup conditions: read-out: TPH1 Range (TPH1 inhibition IC50)
Item-by-item account of IC50

See these solved cases before continuing.
[[record]]
compound = "CC(C)(C)c1ccc(-c2ccc([C@@H](Oc3cc(N4CCC5(CC4)CN[C@H](C(=O)O)C5)nc(N)n3)C(F)(F)F)cc2)cc1 [Example 55ci]"
measurement_label = "IC50"
reading = "300 to 3000 nM"

[[record]]
compound = "CS(=O)(=O)c1cccc(-c2cc(Cl)ccc2COc2cc(N3CCC4(CC3)CN[C@H](C(=O)O)C4)nc(N)n2)c1"
measurement_label = "IC50"
reading = "50 to 300 nM"


Prompt: Consider the compound COc1cc(C#N)cc(-c2ccc([C@@H](Oc3cc(N4CCC5(CC4)CN[C@H](C(=O)O)C5)nc(N)n3)C(F)(F)F)cc2)c1 [Example 55aa] . State its measured IC50.
Completion: 50 to 300 nM

Prompt: Consider the compound CCS(=O)(=O)c1cccc(-c2cc(Cl)ccc2[C@@H](Oc2cc(N3CCC4(CC3)CN[C@H](C(=O)O)C4)nc(N)n2)C(F)(F)F)c1 [Example 34j] . State its measured IC50.
Completion: 50 to 300 nM

Prompt: Consider the compound COc1cccc(-c2ccc([C@@H](Oc3cc(N4CCC5(CC4)CN[C@H](C(=O)O)C5)nc(N)n3)C(F)(F)F)cc2)c1F [Example 55bm] . State its measured IC50.
Completion: 300 to 3000 nM

Prompt: Consider the compound CCCS(=O)(=O)c1cccc(-c2cc(Cl)ccc2[C@@H](Oc2cc(N3CCC4(CC3)CN[C@H](C(=O)O)C4)nc(N)n2)C(F)(F)F)c1 [Example 34k] . State its measured IC50.
Completion: 50 to 300 nM
